Biological target: T1, FLAG-tagged recombinant human Ang1 (Alexis Biochemicals) (human, UniProt Q15389 20-498, limits assumed)
T1 construct: Bought reagent; also called hAng1; FLAG-hAng1
T1 sequence (looked up): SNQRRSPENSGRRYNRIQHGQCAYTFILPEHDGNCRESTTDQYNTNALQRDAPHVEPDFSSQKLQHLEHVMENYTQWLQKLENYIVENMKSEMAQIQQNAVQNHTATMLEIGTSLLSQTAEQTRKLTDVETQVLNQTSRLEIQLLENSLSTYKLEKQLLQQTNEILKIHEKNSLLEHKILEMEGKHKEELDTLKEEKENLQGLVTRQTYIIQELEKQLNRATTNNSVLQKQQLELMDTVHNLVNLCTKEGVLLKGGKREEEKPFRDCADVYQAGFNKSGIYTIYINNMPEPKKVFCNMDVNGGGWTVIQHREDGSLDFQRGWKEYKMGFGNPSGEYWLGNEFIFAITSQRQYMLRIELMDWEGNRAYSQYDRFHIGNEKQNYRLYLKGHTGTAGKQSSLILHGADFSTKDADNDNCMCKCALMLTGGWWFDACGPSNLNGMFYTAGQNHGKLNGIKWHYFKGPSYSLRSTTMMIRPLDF
Assay: ratio of IC50 in hAng1/hTie2 ELISA to IC50 in hAng2/hTie2 ELISA
VALUE TYPE: hAng1/hAng2 ratio

[
  {
    "BINDER": "VHH 37A09 (VHH, also called 037A09; not shown: C-terminal c-myc tag and His6 tag) VHH: EVQLMESGGGLVQPGGSLRLSCAASGFALDYYAIGWFRQVPGKEREGVSCISSSDGITYYVDSVKGRFTISRDNAKNTVYLQMNSLKPGDTAVYYCATDSGGYIDYDCMGLGYDYWGQGTQVTVSS",
    "RESULT": "> 100000"
  },
  {
    "BINDER": "VHH 7G08 (VHH, also called 007G08; not shown: C-terminal c-myc tag and His6 tag) VHH: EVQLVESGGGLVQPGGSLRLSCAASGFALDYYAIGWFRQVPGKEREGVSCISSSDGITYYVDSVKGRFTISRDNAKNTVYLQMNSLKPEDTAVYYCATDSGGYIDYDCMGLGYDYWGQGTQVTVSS",
    "RESULT": "> 2.33e+06"
  },
  {
    "BINDER": "VHH 10H02 (VHH, also called 010H02; not shown: C-terminal c-myc tag and His6 tag) VHH: EVQLVESGGGSVQAGGSLRLSCAASGFTFDDYAIGWFRQAPGKEREGVSCISSSDGSTNYADSVKGRFTISSDTAKNTVYLQMNSLKPEDTAVYYCTAVPATRRTPQMVDANMCWLAEYEYDYWGQGTQVTVSS",
    "RESULT": 230
  },
  {
    "BINDER": "VHH 28D10 (VHH, also called 028D10; not shown: C-terminal c-myc tag and His6 tag) VHH: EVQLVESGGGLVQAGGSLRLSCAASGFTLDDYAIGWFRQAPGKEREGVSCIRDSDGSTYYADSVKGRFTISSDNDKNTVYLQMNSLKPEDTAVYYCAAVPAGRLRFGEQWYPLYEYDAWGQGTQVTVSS",
    "RESULT": "> 3080"
  },
  {
    "BINDER": "VHH 1D01 (VHH, also called 001D01; not shown: C-terminal c-myc tag and His6 tag) VHH: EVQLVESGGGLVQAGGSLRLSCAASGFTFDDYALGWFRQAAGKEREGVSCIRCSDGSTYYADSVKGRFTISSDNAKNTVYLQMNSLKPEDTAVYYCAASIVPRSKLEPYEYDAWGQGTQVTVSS",
    "RESULT": "> 10800"
  },
  {
    "BINDER": "VHH 37F02 (VHH, also called 037F02; not shown: C-terminal c-myc tag and His6 tag) VHH: EVQLVESGGGLVQPGGSLRLSCAASGFALDYYAIGWFRQAPGKEREGVSCISSSDGITYYVDSVKGRFTISRDNAKNTVYLQMNSLKPEDTAVYYCATDSGGYIDYDCMGLGYDYWGQGTQVTVSS",
    "RESULT": "> 100000"
  }
]

Origin of the recorded values: patent US20230203146A1
